# Test system: EKVX NSCLC
# Method summary: NCI-60 one-dose screen, 48 h
# Assay setup: 10 µM unless noted
Compounds without any hit were thinned out: in the full panel of roughly 83,000, 20% have a hit. Activity calls are given as the source filed them. How the source made its calls: active means growth percent below 10; inactive means the rest.
Allowed answers: active, inactive

compound=CCN(CC)CCOC(=O)Nc1c(C(C)C)cccc1C(C)C test_target="EKVX NSCLC" category=inactive
compound=O=C(O)c1c[nH]c2ccccc2c1=O test_target="EKVX NSCLC" category=inactive
compound=O=CNCCc1ccccc1 test_target="EKVX NSCLC" category=inactive
compound=CN(C(=S)S(=O)(=O)C12CC3CC(CC(C3)C1)C2)c1ccccc1 test_target="EKVX NSCLC" category=inactive
compound="CC(=O)C1C(=O)C(=O)N(c2cccc([N+](=O)[O-])c2)C1=O (stereo not drawn)" test_target="EKVX NSCLC" category=inactive
compound=COc1cc(CC#N)c([N+](=O)[O-])cc1OC test_target="EKVX NSCLC" category=inactive
compound="O=C(OCC1CCCO1)c1ccc([N+](=O)[O-])cc1 (stereo not drawn)" test_target="EKVX NSCLC" category=inactive
compound=CCOC(=O)N[C@H]1CCc2cc(OC)c(OC)c(OC)c2-c2ccc(SC)c(=O)cc21 test_target="EKVX NSCLC" category=inactive

Req: What outcome does the record of this test show for CCOC(=O)c1cc(Cl)c(O)c(Cl)c1 ?
Resp: inactive

Req: I'd appreciate the recorded outcome for O=C(O)C1CSC(c2ccccc2)N1 (stereo not drawn) from this test.
Resp: inactive

Req: Any idea what this test logged for CCCCOC(=O)c1ccc(NC(=O)CCl)cc1 ?
Resp: inactive
